System: EGFR (Del19/T790M/C797S)
Experiment: Cell degradation HTRF assay, BaF3-DTC cells
Assay type: cell-based
Details: 16 h treatment, maximum percentage of degradation
Let's look at some compounds and their measured DTC Dmax (%).

# COMPOUND, DTC Dmax (%)
measured = [
    ("CCc1cc(Nc2ncc(Br)c(Nc3cnc4ccccc4c3P(C)(C)=O)n2)c(OC)cc1N1CCC(N2CCN(CCc3cccc4c3cnn4C3CCC(=O)NC3=O)CC2)CC1 (stereo not drawn)", 91.82),
    ("CCc1cc(Nc2ncc(Br)c(Nc3cnc4ccccc4c3P(C)(C)=O)n2)c(OC)cc1N1CCC(N2CCN(C(=O)[C@H]3C[C@H](N(C)c4cc(F)c(C5CCC(=O)NC5=O)c(F)c4)C3)CC2)CC1 (stereo partly drawn)", 97.59),
    ("CCc1cc(Nc2ncc(Br)c(Nc3cnc4c(C)cccc4c3P(C)(C)=O)n2)c(OC)cc1N1CCC(N2CCN(CCC3CCN(c4cc(F)c(C5CCC(=O)NC5=O)c(F)c4)CC3)CC2)CC1 (stereo not drawn)", 96.88),
]

###

We begin with a simple list: items and their reported DC50.
Target: EGFR (L858R/T790M/C797S) (Homo sapiens, UniProt P00533, C797S/L858R/T790M)
Sequence (P00533 25-1210 T790M/C797S/L858R): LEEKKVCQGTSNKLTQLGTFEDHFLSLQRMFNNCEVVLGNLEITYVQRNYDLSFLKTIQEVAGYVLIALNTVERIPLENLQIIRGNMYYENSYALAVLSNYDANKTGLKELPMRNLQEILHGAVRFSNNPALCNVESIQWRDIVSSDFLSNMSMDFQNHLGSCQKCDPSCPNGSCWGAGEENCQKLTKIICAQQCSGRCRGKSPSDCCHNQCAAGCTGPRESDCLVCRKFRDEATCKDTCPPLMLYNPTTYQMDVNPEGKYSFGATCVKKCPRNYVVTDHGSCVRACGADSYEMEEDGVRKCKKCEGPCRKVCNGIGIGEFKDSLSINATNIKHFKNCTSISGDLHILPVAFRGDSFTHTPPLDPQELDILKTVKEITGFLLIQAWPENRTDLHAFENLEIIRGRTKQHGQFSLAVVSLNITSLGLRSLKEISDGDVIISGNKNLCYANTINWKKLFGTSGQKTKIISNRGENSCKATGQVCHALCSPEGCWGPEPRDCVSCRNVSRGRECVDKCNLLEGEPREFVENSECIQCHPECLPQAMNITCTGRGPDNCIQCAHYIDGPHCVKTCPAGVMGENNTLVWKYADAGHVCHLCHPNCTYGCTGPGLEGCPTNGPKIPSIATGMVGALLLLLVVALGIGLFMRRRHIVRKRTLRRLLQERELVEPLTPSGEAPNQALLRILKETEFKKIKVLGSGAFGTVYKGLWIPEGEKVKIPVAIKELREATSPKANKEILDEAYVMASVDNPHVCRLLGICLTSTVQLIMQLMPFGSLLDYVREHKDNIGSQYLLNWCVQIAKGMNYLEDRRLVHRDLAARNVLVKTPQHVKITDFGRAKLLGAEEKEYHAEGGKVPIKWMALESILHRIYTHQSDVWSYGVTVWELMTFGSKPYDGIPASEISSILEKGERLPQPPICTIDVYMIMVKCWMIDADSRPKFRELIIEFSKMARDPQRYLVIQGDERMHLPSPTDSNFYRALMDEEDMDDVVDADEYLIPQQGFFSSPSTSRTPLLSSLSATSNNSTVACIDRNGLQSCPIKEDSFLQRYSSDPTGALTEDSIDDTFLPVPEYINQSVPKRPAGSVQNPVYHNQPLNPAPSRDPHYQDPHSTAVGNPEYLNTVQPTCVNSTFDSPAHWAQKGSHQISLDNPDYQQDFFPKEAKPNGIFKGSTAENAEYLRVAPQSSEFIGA
Assay: Cell degradation HTRF assay, BaF3-LTC cells
Assay type: cell-based
Parameters: expressed in transfected cells; host or cells: BaF3-LTC
Settings: 16 h treatment, HTRF

# COMPOUND, DC50
rows = [
    ("CCc1cc(Nc2ncc(Br)c(Nc3cnc4ccccc4c3P(C)(C)=O)n2)c(OC)cc1N1CCC(N2CCN(C(=O)C3CN(c4cc(F)c(C5CCC(=O)NC5=O)c(F)c4)C3)CC2)CC1 (stereo not shown) [Example 20]", "0.0195 µM"),
    ("CCc1cc(Nc2ncc(Br)c(Nc3cnc4ccccc4c3P(C)(C)=O)n2)c(OC)cc1N1CCC(N2CCN(CCc3cccc4c3cnn4C3CCC(=O)NC3=O)CC2)CC1 (stereo not shown) [Example 12]", "0.0688 µM"),
    ("CCc1cc(Nc2ncc(Br)c(Nc3cnc4c(C)cccc4c3P(C)(C)=O)n2)c(OC)cc1N1CCC(N2CCN(CCc3cc(F)c(C4CCC(=O)NC4=O)c(F)c3)CC2)CC1 (stereo not shown) [Example 10]", "0.219 µM"),
    ("CCc1cc(Nc2ncc(Br)c(Nc3cnc4ccccc4c3P(C)(C)=O)n2)c(OC)cc1N1CCC(N2CCN(CCc3cccc4c3n(C)c(=O)n4C3CCC(=O)NC3=O)CC2)CC1 (stereo not shown) [Example 21]", "0.00502 µM"),
]

###

In this section we review reported DTC Dmax (%) values for a set of molecules.
Tested on: EGFR (Del19/T790M/C797S)
Experiment: Cell degradation HTRF assay, BaF3-DTC cells
Format: cell-based
Conditions: 16 h treatment, maximum percentage of degradation
MEASURED_PARAMETER: DTC Dmax (%)

# MOLECULE, MEASURED_TARGET, REPORTED_MEASUREMENT
measured = [
    ("CCc1cc(Nc2ncc(Br)c(Nc3cnc4ccccc4c3P(C)(C)=O)n2)c(OC)cc1N1CCC(N2CCN(C(=O)C3CN(c4ccc5c(cnn5C5CCC(=O)NC5=O)c4)C3)CC2)CC1 (centres unmarked)", "EGFR (Del19/T790M/C797S)", 88.68),
    ("CCc1cc(Nc2ncc(Br)c(Nc3cnc4c(C)cccc4c3P(C)(C)=O)n2)c(OC)cc1N1CCC(N2CCN(CCc3cc(F)c(C4CCC(=O)NC4=O)c(F)c3)CC2)CC1 (centres unmarked)", "EGFR (Del19/T790M/C797S)", 88.58),
    ("CCc1cc(Nc2ncc(Br)c(Nc3cnc4ccccc4c3P(C)(C)=O)n2)c(OC)cc1N1CCC(N2CCN(C(=O)C3CC4(CC(Nc5cc(F)c(C6CCC(=O)NC6=O)c(F)c5)C4)C3)CC2)CC1 (centres unmarked)", "EGFR (Del19/T790M/C797S)", 94.5),
    ("CCc1cc(Nc2ncc(Br)c(Nc3cnc4ccccc4c3P(C)(C)=O)n2)c(OC)cc1N1CCC(N2CCN(C[C@H]3CCN(c4ccc5c(c4)CN(C4CCC(=O)NC4=O)C5=O)C3)CC2)CC1 (some centres unmarked)", "EGFR (Del19/T790M/C797S)", 91.36),
    ("CCc1cc(Nc2ncc(Br)c(Nc3cnc4cccnc4c3P(C)(C)=O)n2)c(OC)cc1N1CCC(N2CCN(CCc3cc(F)c(C4CCC(=O)NC4=O)c(F)c3)CC2)CC1 (centres unmarked)", "EGFR (Del19/T790M/C797S)", 93.86),
    ("CCc1cc(Nc2ncc(Br)c(Nc3cnc4ccccc4c3P(C)(C)=O)n2)c(OC)cc1N1CCC(N2CCN(CCc3ccc4c(c3)C3(CC3)C(=O)N4C3CCC(=O)NC3=O)CC2)CC1 (centres unmarked)", "EGFR (Del19/T790M/C797S)", 84.3),
    ("CCc1cc(Nc2ncc(Br)c(Nc3cnc4ccccc4c3P(C)(C)=O)n2)c(OC)cc1N1CCC(N2CCN(CCC3CCN(c4cc(F)c(C5CCC(=O)NC5=O)c(F)c4)CC3)CC2)CC1 (centres unmarked)", "EGFR (Del19/T790M/C797S)", 96.55),
    ("CCc1cc(Nc2ncc(Br)c(Nc3cnc4ccccc4c3P(C)(C)=O)n2)c(OC)cc1N1CCC(N2CCN(CC3CN(c4cc(F)c(C5CCC(=O)NC5=O)c(F)c4)C3)CC2)CC1 (centres unmarked)", "EGFR (Del19/T790M/C797S)", 97.44),
]
